Test system: vessel development of the FLK1-GFP transgenic danio rerio
Test: Inhibition test on vascular development of Danio rerio
Type: in vivo
Settings: Danio rerio; 10 μM, after 24 hours, n = 5; read-out: inhibition rate on the development of vertebral vessel
Experimental readout: inhibition at 10 µM
Write the numeric value and follow it with the unit.

Worked cases, inhibition at 10 µM given:
{"columns": ["Compound", "Observed result"],
 "data": [
  ["O=C(Nc1cccc(C(F)(F)F)c1)c1cccc2nc(Oc3ncnc4c3CCNC4)ccc12", "0%"],
  ["O=C(Nc1cccc(C(F)(F)F)c1)c1cccc2nc(Oc3ncnc4c3CNC4)ccc12", "40%"],
  ["Cc1ccc(Nc2nccc(N(C)c3ccc4c(C)n(C)nc4c3)n2)cc1S(N)(=O)=O [Compound 130B, Pazopanib, reference compound]", "90%"],
  ["CNCc1cc(Oc2ccc3c(C(=O)Nc4cccc(C(F)(F)F)c4)cccc3n2)ncn1", "0%"]
]}

Input: Would you kindly share the measured inhibition at 10 µM for Nc1nccc(Oc2ccc3c(C(=O)Nc4cccc(C(F)(F)F)c4)cccc3n2)n1 ?
Output: 100%

Input: Which inhibition at 10 µM value is on record for Nc1cc(Oc2ccc3c(C(=O)Nc4cccc(C(F)(F)F)c4)cccc3n2)ncn1 ?
Output: 100%
